Experimental system: SP4 (Homo sapiens, UniProt Q02446)
Sequence (Q02446 whole entry): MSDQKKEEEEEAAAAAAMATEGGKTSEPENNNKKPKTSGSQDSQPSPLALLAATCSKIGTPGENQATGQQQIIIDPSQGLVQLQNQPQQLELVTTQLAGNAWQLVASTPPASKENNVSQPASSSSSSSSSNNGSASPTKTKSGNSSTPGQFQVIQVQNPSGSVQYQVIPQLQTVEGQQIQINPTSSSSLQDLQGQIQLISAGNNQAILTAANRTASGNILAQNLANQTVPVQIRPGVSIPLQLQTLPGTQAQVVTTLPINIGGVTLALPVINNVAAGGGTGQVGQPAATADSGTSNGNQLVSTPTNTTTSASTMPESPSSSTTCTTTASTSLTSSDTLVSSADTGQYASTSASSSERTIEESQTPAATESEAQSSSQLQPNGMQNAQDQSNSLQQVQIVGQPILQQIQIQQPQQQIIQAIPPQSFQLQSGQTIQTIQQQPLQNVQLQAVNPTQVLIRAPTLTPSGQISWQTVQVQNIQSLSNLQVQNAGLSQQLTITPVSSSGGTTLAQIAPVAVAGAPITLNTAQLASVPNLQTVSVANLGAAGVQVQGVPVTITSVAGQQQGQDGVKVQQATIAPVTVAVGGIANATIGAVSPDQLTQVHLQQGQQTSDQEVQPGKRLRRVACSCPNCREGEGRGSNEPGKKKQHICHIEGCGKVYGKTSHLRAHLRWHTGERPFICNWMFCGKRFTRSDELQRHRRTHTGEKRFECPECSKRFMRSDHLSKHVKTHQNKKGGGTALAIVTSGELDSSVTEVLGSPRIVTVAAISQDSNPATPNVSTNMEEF
Test description: competition; 150 mM NaCl, 50 mM Tris pH 8, 0.25% NP-40, 1 mM TCEP; 4 C, 2 h; 100 ug HeLa nuclear lysate; free competitor against 200 nM immobilised SP/KLF wild-type
Condition context: protein: extract
Readout type: pIC50
Numbers only, as −log10 of the molar value.

# input Name the recorded pIC50 for SP/KLF wild-type (dsDNA) DNA 1: GAGAGCCCCGCCCCCTGGCT DNA 2: AGCCAGGGGGCGGGGCTCTC .
# output 7.06

Source listed as paper PMC5916898.
